target: human LILRB4 on 293T-hLILRB4 cells (human, UniProt Q8NHJ6 22-448); experiment: cell-based or functional assay
Catalogue of EC50 (read off the curve); ADCC reporter induction multiple values

// humanized antibody RB4-G1-018 (antibody, human IgG1, kappa, V domains shown) VH: QVQLVQSGAEVKKPGASVKVSCKASGYTFTSYWMHWVRQAPGQGLEWIGEINPSNGRTNYNEKFKSRATLTVDKSTSTAYMELSSLRSEDTAVYYCARDRYDEGNAMDYWGQGTTVTVSS VL: DIQMTQSPSSLSASVGDRVTITCRASQDITNYLNWYQQKPGKAPKLLIYYTSRLHSGVPSRFSGSGSGTEYTLTISSLQPDDFATYYCQQGDTLPRTFGQGTRLEIKR : EC50 (read off the curve); ADCC reporter induction multiple value = ~0.06 µg/mL

// humanized antibody RB4-G1-020 (antibody, human IgG1, kappa, V domains shown) VH: QVQLVQSGAEVKKPGASVKVSCKASGYTFTSYWMHWVRQAPGQGLEWMGEINPSNGRTNYNEKFKSRVTMTRDTSTSTVYMELSSLRSEDTAVYYCARDRYDEGNAMDYWGQGTTVTVSS VL: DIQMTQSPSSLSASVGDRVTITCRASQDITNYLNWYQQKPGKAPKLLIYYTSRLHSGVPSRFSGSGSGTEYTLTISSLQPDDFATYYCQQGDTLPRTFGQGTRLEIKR : EC50 (read off the curve); ADCC reporter induction multiple value = ~0.06 µg/mL

// humanized antibody RB4-G1-022 (antibody, human IgG1, kappa, V domains shown) VH: QVQLVQSGAEVKKPGASVKVSCKASGYTFTSYWMHWVRQAPGQGLEWIGEINPSNGRTNYNEKFKSRATLTVDKSTSTAYMELSSLRSEDTAVYYCARDRYDEGNAMDYWGQGTTVTVSS VL: DIQMTQSPSSLSASVGDRVTITCRASQDITNYLNWYQQKPGKAPKLLIYYTSRLHSGVPSRFSGSGSGTDYTFTISSLQPEDIATYYCQQGDTLPRTFGQGTRLEIKR : EC50 (read off the curve); ADCC reporter induction multiple value = ~0.05 µg/mL

// humanized antibody RB4-G1-019 (antibody, human IgG1, kappa, V domains shown) VH: QVQLVQSGAEVKKPGASVKVSCKASGYTFTSYWMHWVRQAPGQGLEWMGEINPSNGRTNYNEKFKSRVTLTVDKSTSTVYMELSSLRSEDTAVYYCARDRYDEGNAMDYWGQGTTVTVSS VL: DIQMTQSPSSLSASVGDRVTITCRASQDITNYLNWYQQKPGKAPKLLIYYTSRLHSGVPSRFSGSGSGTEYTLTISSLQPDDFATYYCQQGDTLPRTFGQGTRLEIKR : EC50 (read off the curve); ADCC reporter induction multiple value = ~0.06 µg/mL
